test system: MS2 coat protein; experiment: apparent Kd, MS2 coat protein; higher = weaker binding; RNA-MaP array; tryptophan 2.4 mM where present; details: ligand present: tryptophan; designed as: OFF switch for tryptophan
Property: apparent Kd

>>> experimental_value("AGAUUCGACACGGCCGCCACUCGUGCCGGAUUACCGAGUGUCGAACAUGAGGAUCACCCAUGUACGAGGACCGGGUGUUGAGUCU")
"262 nM"
>>> experimental_value("AAAGAUCGGAAACGAUCGGCGGCUUGGGCGCGAGGACCGGUACGGCCGCCACUCGGGAAACAUGAGGAUCACCCAUGUUGCUAGC")
"15.2 nM"
>>> experimental_value("UGCUAGUGAUCGGCCGCCACUGGCACCUUGAGGAUCCUGCUAAAGUACAUGAGGAUCACCCAUGUCAGGACCGGGAUCAUCAGUG")
"10.5 nM"
>>> experimental_value("UAUAUAUAUCACGAACUGUGGUGUAUGUCCCGAGGACCGGUACGGCCGCCACUCGCGUGGUUCCACAUGAGGAUCACCCAUGUUG")
"22.7 nM"
>>> experimental_value("CCAUAAGUACCGGUCCUCAGAUCCUCAUGACGAGGACCGGUACGGCCGCCACUCGAAACAUGAGGAUCACCCAUGUAAUAAUAUC")
"24.6 nM"
>>> experimental_value("ACAUGAGGAUCACCCAUGUGAAGCAGGGUACGAGGACCGGUACGGCCGCCACUCGAGCAUUAUACCGAGUGAAUGGCAACGAUGU")
"17 nM"
>>> experimental_value("UACUUGCUGACGGCCGCCACUAGAACAUGAGGAUCACCCAUGUAAGUGGUUGGUUCAUGGGUGACUAGGACCGGGUCAGCAAGAU")
"37.3 nM"
